tested.on: T1, human IgE (human, UniProt P01854)
T1 chain: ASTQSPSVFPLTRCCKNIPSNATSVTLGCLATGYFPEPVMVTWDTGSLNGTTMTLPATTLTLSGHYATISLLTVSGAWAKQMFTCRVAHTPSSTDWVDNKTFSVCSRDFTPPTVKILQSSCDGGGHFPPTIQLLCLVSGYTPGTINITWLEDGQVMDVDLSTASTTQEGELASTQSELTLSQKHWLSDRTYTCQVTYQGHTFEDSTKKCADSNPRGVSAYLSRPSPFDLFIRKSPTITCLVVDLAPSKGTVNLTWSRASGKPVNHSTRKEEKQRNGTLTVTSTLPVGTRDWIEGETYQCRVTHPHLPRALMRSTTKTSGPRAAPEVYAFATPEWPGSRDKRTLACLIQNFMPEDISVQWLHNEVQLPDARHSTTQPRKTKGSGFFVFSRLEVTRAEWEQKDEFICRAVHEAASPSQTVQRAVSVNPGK
assay.text: competition SPR, pH 7.4
value.type: IC50 (µg/mL)
Field: numeric (µg/mL). Do not append units.

A selection of reference data follows.
binder="VL18B9_Y49H (18B9His) (antibody, V domains shown) VH: QVQLVESGGGLVQPGGSLRLSCAASGFTFSSYVMSWVRQAPGKGLEWVSSIYSDGSHTYYADSVKGRFTISRDNAKNTLYLQMNSLKSEDTAVYYCAKNLEHYSGSYYYTDPRYDYWGQGTQVTVSS VL: SSALTQPSALSVTLGQTAKITCQGGSLGSSYVHWYQQKPGQAPVLVIHDGDSRPSGIPERFSGSSSGGTATLTISGAQAEDEDDYYCQSADSSGNAVFGGGTHLTVL" unit=µg/mL value_observed=2.7
binder="18E2_VH_S35H_VL_Y34H (18E2His2) (antibody, V domains shown) VH: QLQLVESGGGLVQPGGSLRLSCAASGFTFSSYVMHWVRQAPGKGLEWVSSIYHDGSHTYYADFVKGRFTISRDNAKNTLYLQMNSLKSEDTAVYYCASGTSYSGSYYYTDPFFGSWGQGTQVTVSS VL: NFMLTQPSALSVTLGQTARITCQGDRLGSRYIHWYQQKPPQAPVLVIHDDDRRPSGIPERFSGSSSGGTATLTISGAQAEDDGDYYCQSADSSGNPVFGGGTHLTVL" unit=µg/mL value_observed=6
binder="18B9His-hIgG1-ABDEG (antibody, V domains shown) VH: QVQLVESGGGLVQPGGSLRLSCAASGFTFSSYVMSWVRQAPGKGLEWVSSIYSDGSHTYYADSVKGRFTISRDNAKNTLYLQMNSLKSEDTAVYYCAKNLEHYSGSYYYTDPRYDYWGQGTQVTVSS VL: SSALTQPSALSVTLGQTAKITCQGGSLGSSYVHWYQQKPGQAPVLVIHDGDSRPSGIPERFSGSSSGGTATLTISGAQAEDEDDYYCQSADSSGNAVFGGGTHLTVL" unit=µg/mL value_observed=2.9
binder="13E4 (antibody, V domains shown) VH: ELQLVESGGGLVQPGGSLRLSCAASGFTFSSYVMSWVRQAPGKGLEWVSSIYHDGSHTYYADFVKGRFTISRDNAKNTLYLQMNSLKSEDTAVYYCASGTSYSGSYYYTDPFFGSWGQGTQVTVSS VL: HSAVTQPSALSVTLGQTAKITCQGGSLGSNYAYWYQQKPGQAPVLVIYDDDSRPSGIPERFSGSSSGGTATLTISGAQAEDEGDYYCQSADSNGNAVFGGGTHLTVL" unit=µg/mL value_observed=2.3
binder="13E4-hIgG1-ABDEG (antibody, V domains shown) VH: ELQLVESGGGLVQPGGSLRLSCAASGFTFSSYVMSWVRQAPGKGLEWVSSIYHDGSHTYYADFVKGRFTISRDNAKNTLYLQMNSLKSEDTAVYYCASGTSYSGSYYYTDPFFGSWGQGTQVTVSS VL: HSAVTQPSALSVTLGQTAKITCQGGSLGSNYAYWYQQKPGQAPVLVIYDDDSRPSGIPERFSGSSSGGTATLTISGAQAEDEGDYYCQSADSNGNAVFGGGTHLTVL" unit=µg/mL value_observed=3

Kindly consider the entry below.
Which IC50 value belongs to 18E2His2-hIgG1-ABDEG (antibody, V domains shown) VH: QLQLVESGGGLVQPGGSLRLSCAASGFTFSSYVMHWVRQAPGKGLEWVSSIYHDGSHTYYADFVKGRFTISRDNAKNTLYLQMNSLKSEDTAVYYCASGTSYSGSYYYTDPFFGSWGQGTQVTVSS VL: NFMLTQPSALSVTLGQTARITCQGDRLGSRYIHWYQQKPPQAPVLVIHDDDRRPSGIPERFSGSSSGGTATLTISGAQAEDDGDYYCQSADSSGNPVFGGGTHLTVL ?
5.8
